Measurement target: COX-1 (Homo sapiens)
Sequence (P23219 24-599): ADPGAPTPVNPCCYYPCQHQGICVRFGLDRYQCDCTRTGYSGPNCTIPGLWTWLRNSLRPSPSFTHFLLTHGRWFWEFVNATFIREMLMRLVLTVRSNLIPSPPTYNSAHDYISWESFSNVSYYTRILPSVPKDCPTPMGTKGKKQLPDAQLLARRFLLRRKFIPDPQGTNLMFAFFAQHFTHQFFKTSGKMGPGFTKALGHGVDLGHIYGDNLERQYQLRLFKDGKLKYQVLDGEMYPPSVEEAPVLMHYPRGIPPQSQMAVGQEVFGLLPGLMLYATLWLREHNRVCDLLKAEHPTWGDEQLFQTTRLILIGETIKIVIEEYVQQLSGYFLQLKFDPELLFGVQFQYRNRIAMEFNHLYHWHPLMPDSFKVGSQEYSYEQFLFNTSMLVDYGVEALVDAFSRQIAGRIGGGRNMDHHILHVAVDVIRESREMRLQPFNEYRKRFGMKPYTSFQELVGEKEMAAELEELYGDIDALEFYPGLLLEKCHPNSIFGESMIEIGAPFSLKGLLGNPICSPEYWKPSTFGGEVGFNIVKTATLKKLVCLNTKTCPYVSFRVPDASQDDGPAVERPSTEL
Test description: Inhibitory activity on COX-1 (PGE2 production from arachidonic acid, PGE2 ELISA; Needleman method)
Format: biochemical
Applied conditions: 1 mM arachidonic acid, 1 μM hematin, pH 8.0, 37° C., 10 min
pIC50: −log10 of the molar value.
Assay metric: pIC50

INSERT INTO results (molecule, result) VALUES
  ('CS(=O)(=O)c1ccc(-c2cc3cccccc-3c2-c2ccccc2Cl)cc1 [Compound 2]', '< 5.00'),
  ('NS(=O)(=O)c1ccc(-c2cc3cccccc-3c2-c2cccc(F)c2)cc1 [Compound 29]', 5.33),
  ('COc1ccc(-c2c3cccccc-3cc2-c2ccc(S(N)(=O)=O)cc2)cc1F [Compound 35]', 5.17);

Looking up COc1ccc(-c2c3cccccc-3cc2-c2ccc(S(C)(=O)=O)cc2)cc1F [Compound 14] , I found its pIC50 recorded as < 5.00

Looking up Cc1ccc(-c2c3cccccc-3cc2-c2ccc(S(C)(=O)=O)cc2)cc1 [Compound 8] , I found its pIC50 recorded as < 5.00
